Experiment: self-splicing fitness, log relative to wild type (ln ratio); higher = more splicing; Tetrahymena group I intron in knt gene, E. coli kanamycin selection, DiMSum; sequences stand for … in CUCUCU…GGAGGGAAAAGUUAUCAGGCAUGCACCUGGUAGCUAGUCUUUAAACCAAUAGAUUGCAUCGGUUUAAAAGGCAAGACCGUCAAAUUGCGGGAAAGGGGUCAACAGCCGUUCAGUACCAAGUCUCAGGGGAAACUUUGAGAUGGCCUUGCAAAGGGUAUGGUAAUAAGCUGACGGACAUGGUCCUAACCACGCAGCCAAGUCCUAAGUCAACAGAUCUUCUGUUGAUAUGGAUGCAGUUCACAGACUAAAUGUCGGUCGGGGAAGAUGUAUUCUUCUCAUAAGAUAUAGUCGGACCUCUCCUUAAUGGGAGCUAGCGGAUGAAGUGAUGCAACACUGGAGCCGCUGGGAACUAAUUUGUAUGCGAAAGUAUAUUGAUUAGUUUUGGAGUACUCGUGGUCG;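 note: selection with 25 µg/mL kanamycin versus none on LB agar overnight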
Conditions: 30 °C
propertyLabel: self-splicing fitness (ln)

Recorded results for 5 sequences are shown here.
1. GUUUAGCAAUAUUACGGCGC    0.141
2. UUCCAGCAAUAUUACGGUUU    -0.65
3. AGAUAGCAAUAUUACGUAAA    -2.53
4. GCUCAGCAAUAUUACGCCCC    0.441
5. ACCCAGCAAUAUUACGGCAA    -0.219

# self-splicing fitness (ln) (sequence: UGGCAGCAAUAUUACGGAGU ) is -2.61

# self-splicing fitness (ln) (sequence: GCUGAGCAAUAUUACGACAG ) is -1.05

---

Assay: self-splicing fitness, log relative to wild type (ln ratio); higher = more splicing; Tetrahymena group I intron in knt gene, E. coli kanamycin selection, DiMSum; sequences stand for … in CUCUCU…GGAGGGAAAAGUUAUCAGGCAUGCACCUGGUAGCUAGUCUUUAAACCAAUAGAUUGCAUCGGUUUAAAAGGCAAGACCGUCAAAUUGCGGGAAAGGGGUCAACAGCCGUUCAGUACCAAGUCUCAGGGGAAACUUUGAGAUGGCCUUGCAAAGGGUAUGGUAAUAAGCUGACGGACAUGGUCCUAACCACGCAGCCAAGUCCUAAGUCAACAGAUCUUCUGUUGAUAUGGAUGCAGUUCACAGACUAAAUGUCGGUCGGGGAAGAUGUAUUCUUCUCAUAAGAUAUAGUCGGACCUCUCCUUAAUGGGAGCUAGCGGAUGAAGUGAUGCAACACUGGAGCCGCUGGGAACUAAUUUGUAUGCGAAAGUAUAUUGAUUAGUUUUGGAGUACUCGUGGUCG
Conditions: 30 °C
// label = Criterion met if self-splicing fitness (ln) is not less than -2, otherwise Criterion not met

For orientation, consider the following solved cases.
1. CCUGAGCAAUAUUACGGAAU    Criterion not met
2. UAGCAGCAAUAUUACGAUAU    Criterion not met
3. AUGGAGCAAUAUUACGAACA    Criterion met
4. AGCAAGCAAUAUUACGCGCA    Criterion met

Now for a further sequence.
Req: Confirm if self-splicing fitness (ln) reported for the sequence UGUCAGCAAUAUUACGAGGU is -2 or above.
Resp: Criterion not met

---

Assay: self-splicing fitness, log relative to wild type (ln ratio); higher = more splicing; Tetrahymena group I intron in knt gene, E. coli kanamycin selection, DiMSum; sequences stand for … in CUCUCU…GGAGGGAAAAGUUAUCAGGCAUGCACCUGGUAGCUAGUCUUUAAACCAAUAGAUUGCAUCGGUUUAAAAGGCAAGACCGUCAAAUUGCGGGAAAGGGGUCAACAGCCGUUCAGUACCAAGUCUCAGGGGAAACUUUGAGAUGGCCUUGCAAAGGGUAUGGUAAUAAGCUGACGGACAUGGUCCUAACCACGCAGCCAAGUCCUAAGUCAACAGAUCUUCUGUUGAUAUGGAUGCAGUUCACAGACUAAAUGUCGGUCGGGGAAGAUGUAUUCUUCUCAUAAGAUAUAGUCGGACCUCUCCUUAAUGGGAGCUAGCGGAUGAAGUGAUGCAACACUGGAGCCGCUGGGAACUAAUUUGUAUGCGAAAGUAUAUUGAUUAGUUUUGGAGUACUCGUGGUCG
Settings: 37 °C
propertyLabel: self-splicing fitness (ln)
Kindly provide the number alone.

# self-splicing fitness (ln) (sequence: GAGUAGCAAUAUUACGCAAU ) is -2.34

# self-splicing fitness (ln) (sequence: CGUAAGCAAUAUUACGCAGU ) is -2.64

# self-splicing fitness (ln) (sequence: GCUCAGCAAUAUUACGCCCC ) is -0.222

# self-splicing fitness (ln) (sequence: CUUGAGCAAUAUUACGUGUA ) is -2.84

# self-splicing fitness (ln) (sequence: GUAGAGCAAUAUUACGAUAA ) is 0.242

# self-splicing fitness (ln) (sequence: AUUCAGCAAUAUUACGUCGA ) is -0.503

# self-splicing fitness (ln) (sequence: AUGAAGCAAUAUUACGGUGA ) is 0.195

# self-splicing fitness (ln) (sequence: UGAAAGCAAUAUUACGGGAG ) is -0.515

# self-splicing fitness (ln) (sequence: AACUAGCAAUAUUACGUGUC ) is -1.25
